experimentalTarget: PAD1 (Homo sapiens)
Construct: made in house
Sequence (Q9ULC6 1-663): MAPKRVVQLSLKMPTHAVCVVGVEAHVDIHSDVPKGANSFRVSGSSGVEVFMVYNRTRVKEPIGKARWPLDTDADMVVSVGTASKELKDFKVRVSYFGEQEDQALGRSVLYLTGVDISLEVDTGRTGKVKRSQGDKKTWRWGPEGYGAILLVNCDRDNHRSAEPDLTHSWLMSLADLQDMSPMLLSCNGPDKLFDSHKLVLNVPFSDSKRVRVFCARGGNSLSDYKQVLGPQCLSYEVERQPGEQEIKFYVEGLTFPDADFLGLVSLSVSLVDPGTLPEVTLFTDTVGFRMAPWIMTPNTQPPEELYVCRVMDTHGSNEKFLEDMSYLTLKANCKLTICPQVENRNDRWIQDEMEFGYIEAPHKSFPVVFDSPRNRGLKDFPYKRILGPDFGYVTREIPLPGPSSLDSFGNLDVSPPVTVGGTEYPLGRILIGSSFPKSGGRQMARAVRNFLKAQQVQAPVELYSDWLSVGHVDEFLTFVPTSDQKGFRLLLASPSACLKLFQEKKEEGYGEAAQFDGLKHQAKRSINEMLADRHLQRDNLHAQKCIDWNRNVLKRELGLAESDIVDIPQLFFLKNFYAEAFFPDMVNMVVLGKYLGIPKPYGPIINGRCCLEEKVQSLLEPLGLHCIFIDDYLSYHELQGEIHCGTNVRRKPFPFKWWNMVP
measurementProtocol: Inactivation kinetics, PAD1
Assay type: biochemical
measurementParameters: kinact/KI relative to least inhibited isozyme (1.0)
Procedure: Inactivation kinetic parameters were determined by incubating PAD1, 2, or 4 (2.0 μM) or PAD3 (5.0 μM) in a pre-warmed (10 min; 37° C.) inactivation mixture (50 mM HEPES, 10 mM CaCl2, and 2 mM DTT, pH 7.6, with a final volume of 60 μL) containing various concentrations of inhibitor. […] After 15 min, reactions were quenched in liquid nitrogen and citrulline production quantified using the COLDER assay. […]
Reported Fold PAD1 Selectivity by item:
Your answer should be a plain number; it is taken to be in fold.

The reported value for CCN1Cc2cccc(C(=O)N[C@@H](CCCNC(=N)CF)c3nc4cc(OC)ccc4n3CC)c2C1=O in terms of Fold PAD1 Selectivity is 28

More entries:
Sample CCN1Cc2cccc(C(=O)N[C@@H](CCCNC(=N)CCl)c3nc4ccccc4[nH]3)c2C1=O ; Fold PAD1 Selectivity observed: 4.3

Noted for Cn1c([C@H](CCCNC(=N)CF)NC(=O)c2cccc3c2C(=O)NC3)nc2ccccc21 : its Fold PAD1 Selectivity reads 25

Briefly, Fold PAD1 Selectivity measured for CC(C)n1c([C@H](CCCNC(=N)CCl)NC(=O)c2cccc3c2C(=O)NC3)nc2ccccc21 : 27

# compound CCn1c([C@H](CCCNC(=N)CCl)NC(=O)c2cccc3c2C(=O)NC3)nc2ccccc21 ; its Fold PAD1 Selectivity = 10

Entry Cn1c([C@H](CCCNC(=N)CF)NC(=O)c2ccccc2C(=O)OC(C)(C)C)nc2ccccc21 — recorded Fold PAD1 Selectivity = 2.1

Briefly, Fold PAD1 Selectivity measured for N=C(CF)NCCC[C@H](NC(=O)c1ccc(-c2ccc(F)cc2)cc1)c1nc2ccccc2[nH]1 : 1.0

Record CCN1Cc2cccc(C(=O)N[C@@H](CCCNC(=N)CF)c3nc4ccccc4[nH]3)c2C1=O , field Fold PAD1 Selectivity: 3.4

The compound listed as CCN1Cc2cccc(C(=O)N[C@@H](CCCNC(=N)CCl)c3nc4c(OC)cccc4n3C)c2C1=O shows Fold PAD1 Selectivity equal to 3.9

----------
experimentalTarget: PAD2 (Homo sapiens)
Construct: made in house
Sequence (Q9Y2J8 whole entry): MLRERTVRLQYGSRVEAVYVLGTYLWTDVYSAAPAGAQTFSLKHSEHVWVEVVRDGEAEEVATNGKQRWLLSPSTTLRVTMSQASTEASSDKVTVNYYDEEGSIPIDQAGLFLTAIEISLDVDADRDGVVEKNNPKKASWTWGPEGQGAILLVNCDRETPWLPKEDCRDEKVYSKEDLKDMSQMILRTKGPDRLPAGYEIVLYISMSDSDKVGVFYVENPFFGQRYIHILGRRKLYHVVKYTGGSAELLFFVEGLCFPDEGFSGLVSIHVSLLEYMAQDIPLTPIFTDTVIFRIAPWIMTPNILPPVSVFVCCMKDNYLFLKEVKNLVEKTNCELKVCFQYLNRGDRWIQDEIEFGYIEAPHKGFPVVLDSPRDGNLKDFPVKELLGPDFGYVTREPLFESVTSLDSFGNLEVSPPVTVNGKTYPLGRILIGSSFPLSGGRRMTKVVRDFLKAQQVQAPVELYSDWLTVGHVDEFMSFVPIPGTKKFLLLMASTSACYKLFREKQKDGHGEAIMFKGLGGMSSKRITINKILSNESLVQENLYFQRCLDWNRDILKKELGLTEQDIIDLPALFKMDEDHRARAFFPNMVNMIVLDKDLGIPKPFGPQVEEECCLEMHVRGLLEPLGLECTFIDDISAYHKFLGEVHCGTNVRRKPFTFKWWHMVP
measurementProtocol: Inactivation kinetics, PAD2
Format: biochemical
measurementParameters: kinact/KI relative to least inhibited isozyme (1.0)
endpointLabel: Fold PAD2 Selectivity
Answers without a unit are incomplete; give the number and then its unit.

Please review the following examples before continuing.
Given item CCN1Cc2cccc(C(=O)N[C@@H](CCCNC(=N)CCl)c3nc4ccccc4n3C)c2C1=O [Compound 8d] , the value recorded as its Fold PAD2 Selectivity is 19 fold

# Fold PAD2 Selectivity (molecule: CC(C)n1c([C@H](CCCNC(=N)CCl)NC(=O)c2ccccc2C(=O)O)nc2ccccc21 [Compound 6h] ) is 38 fold

Next:
Item: Cn1c([C@H](CCCNC(=N)CF)NC(=O)c2ccc(-c3ccccc3)cc2)nc2ccccc21 [Compound 5g] | Fold PAD2 Selectivity: 1.8 fold

# Fold PAD2 Selectivity of CCn1c([C@H](CCCNC(=N)CCl)NC(=O)c2ccccc2C(=O)O)nc2ccccc21 [Compound 6f] = 1.6 fold

Fold PAD2 Selectivity recorded for this molecule, CCN1Cc2cccc(C(=O)N[C@@H](CCCNC(=N)CF)c3nc4ccccc4n3C)c2C1=O [Compound 8c] , is 11 fold

Fold PAD2 Selectivity reading for N=C(CCl)NCCC[C@H](NC(=O)c1ccc2ccccc2c1)c1nc2ccccc2[nH]1 [Compound 5d] : 1.5 fold

Briefly, Fold PAD2 Selectivity measured for COc1cccc2[nH]c([C@H](CCCNC(=N)CCl)NC(=O)c3cccc4c3C(=O)NC4)nc12 [Compound 7j] : 11 fold

----------
As shown below, each of these molecules has a reported kinact/KI value.
experimentalTarget: PAD4 (Homo sapiens, UniProt Q9UM07)
Construct: made in house
Sequence (Q9UM07 whole entry): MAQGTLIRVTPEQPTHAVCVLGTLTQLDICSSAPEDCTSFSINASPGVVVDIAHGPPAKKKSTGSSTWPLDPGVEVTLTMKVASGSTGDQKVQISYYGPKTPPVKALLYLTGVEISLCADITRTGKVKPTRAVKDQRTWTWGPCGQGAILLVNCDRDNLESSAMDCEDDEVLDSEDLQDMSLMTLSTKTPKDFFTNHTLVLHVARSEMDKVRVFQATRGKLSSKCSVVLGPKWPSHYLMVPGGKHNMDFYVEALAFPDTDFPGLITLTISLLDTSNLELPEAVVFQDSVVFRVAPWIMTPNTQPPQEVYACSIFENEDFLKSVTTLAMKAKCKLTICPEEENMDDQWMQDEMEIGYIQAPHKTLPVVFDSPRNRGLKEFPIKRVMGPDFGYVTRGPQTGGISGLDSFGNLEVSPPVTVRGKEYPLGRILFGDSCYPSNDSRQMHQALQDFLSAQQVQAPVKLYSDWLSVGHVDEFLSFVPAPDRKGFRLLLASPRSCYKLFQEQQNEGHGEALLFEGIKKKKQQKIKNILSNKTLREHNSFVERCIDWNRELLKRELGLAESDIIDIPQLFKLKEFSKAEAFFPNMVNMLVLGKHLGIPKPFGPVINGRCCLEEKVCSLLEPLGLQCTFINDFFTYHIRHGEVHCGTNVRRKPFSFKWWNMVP
measurementProtocol: Inactivation kinetics, PAD4
Format: biochemical
measurementParameters: a: single kobs determined; b: from a linear fit
Please report the result as a number followed by the unit.

Noted kinact/KI for Cn1c([C@H](CCCNC(=N)CCl)NC(=O)c2cccc3c2C(=O)NC3)nc2ccccc21 , tested on PAD4 (Homo sapiens, UniProt Q9UM07): 398 M⁻¹ s⁻¹

Now let's try a different one.
Reported kinact/KI (PAD4 (Homo sapiens, UniProt Q9UM07)) for entry COc1cccc2c1nc([C@H](CCCNC(=N)CF)NC(=O)c1cccc3c1C(=O)N(C1CC1)C3)n2C is 75 M⁻¹ s⁻¹

----------
Reported Fold PAD4 Selectivity values follow for various molecules
experimentalTarget: PAD4 (Homo sapiens, UniProt Q9UM07)
Construct: made in house
measurementProtocol: Inactivation kinetics, PAD4
Type: biochemical
measurementParameters: kinact/KI relative to least inhibited isozyme (1.0)
All answers are understood in fold, so give the number only.

Solved entries (count: 2):
# molecule CCn1c([C@H](CCCNC(=N)CF)NC(=O)c2ccccc2C(=O)OC(C)(C)C)nc2ccccc21 ; its Fold PAD4 Selectivity = 1.0

Looking up N=C(CCl)NCCC[C@H](NC(=O)c1ccc(-c2ccccc2)cc1)c1nc2cc(F)c(F)cc2[nH]1 , I found its Fold PAD4 Selectivity recorded as 3.6

Continuing:
Lab note: CCn1c([C@H](CCCNC(=N)CCl)NC(=O)c2ccccc2C(=O)OC(C)(C)C)nc2ccccc21 gave Fold PAD4 Selectivity of 1.0

The recorded Fold PAD4 Selectivity for N=C(CF)NCCC[C@H](NC(=O)c1ccc(-c2ccc(F)cc2)cc1)c1nc2ccccc2[nH]1 is 2.3

The molecule N=C(CCl)NCCC[C@H](NC(=O)c1ccc(-c2ccc(F)cc2)cc1)c1nc2ccccc2[nH]1 showed Fold PAD4 Selectivity equal to 3.1

# molecule COc1cccc2c1nc([C@H](CCCNC(=N)CF)NC(=O)c1ccc(-c3ccccc3)cc1)n2C ; its Fold PAD4 Selectivity = 1.0

# Fold PAD4 Selectivity (molecule: N=C(CF)NCCC[C@H](NC(=O)c1ccc(-c2ccc(F)cc2)cc1)c1nc2cc(F)c(F)cc2[nH]1 ) is 3.7

Fold PAD4 Selectivity reported for this molecule CCN1Cc2cccc(C(=O)N[C@@H](CCCNC(=N)CF)c3nc4cc(OC)ccc4n3C)c2C1=O : 3.8

----------
Overview of reported Fold PAD1 Selectivity across a group of molecules:
experimentalTarget: PAD1 (Homo sapiens, UniProt Q9ULC6)
Construct: made in house
Sequence (Q9ULC6 1-663): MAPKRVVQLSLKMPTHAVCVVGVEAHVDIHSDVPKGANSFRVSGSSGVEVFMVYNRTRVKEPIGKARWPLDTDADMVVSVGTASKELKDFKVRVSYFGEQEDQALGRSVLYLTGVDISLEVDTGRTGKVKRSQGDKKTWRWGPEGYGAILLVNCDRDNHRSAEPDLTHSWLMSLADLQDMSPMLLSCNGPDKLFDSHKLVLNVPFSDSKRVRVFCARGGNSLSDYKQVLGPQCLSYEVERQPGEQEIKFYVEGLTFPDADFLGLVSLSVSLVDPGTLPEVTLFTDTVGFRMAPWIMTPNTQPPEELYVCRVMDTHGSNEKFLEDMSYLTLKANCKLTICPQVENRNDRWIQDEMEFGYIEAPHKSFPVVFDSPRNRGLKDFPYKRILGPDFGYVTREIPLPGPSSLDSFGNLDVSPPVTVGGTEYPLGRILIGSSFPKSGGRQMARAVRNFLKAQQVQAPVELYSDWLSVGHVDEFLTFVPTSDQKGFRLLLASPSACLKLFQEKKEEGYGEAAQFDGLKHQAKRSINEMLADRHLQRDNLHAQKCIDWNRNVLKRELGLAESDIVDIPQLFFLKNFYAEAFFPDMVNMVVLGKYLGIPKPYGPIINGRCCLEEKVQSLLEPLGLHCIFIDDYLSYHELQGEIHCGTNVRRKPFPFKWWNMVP
measurementProtocol: Inactivation kinetics, PAD1
Assay type: biochemical
measurementParameters: kinact/KI relative to least inhibited isozyme (1.0)
Protocol: Inactivation kinetic parameters were determined by incubating PAD1, 2, or 4 (2.0 μM) or PAD3 (5.0 μM) in a pre-warmed (10 min; 37° C.) inactivation mixture (50 mM HEPES, 10 mM CaCl2, and 2 mM DTT, pH 7.6, with a final volume of 60 μL) containing various concentrations of inhibitor. […] After 15 min, reactions were quenched in liquid nitrogen and citrulline production quantified using the COLDER assay. […]

Below, 6 molecules whose answers are already recorded.
response.value for COc1cccc2c1nc([C@H](CCCNC(=N)CCl)NC(=O)c1ccccc1C(=O)O)n2C [Compound 6j] (field: Fold PAD1 Selectivity) = 7.0 fold

Query N=C(CF)NCCC[C@H](NC(=O)c1ccc(-c2ccc(F)cc2)cc1)c1nc2cc(F)c(F)cc2[nH]1 [Compound 5s] yields Fold PAD1 Selectivity of 1.6 fold

Measured Fold PAD1 Selectivity of COc1cccc2c1nc([C@H](CCCNC(=N)CF)NC(=O)c1cccc3c1C(=O)N(C1CC1)C3)n2C [Compound 8s] : 38 fold

Per the records, this molecule ( CC(C)n1c([C@H](CCCNC(=N)CF)NC(=O)c2cccc3c2C(=O)NC3)nc2ccccc21 [Compound 7g] ) has Fold PAD1 Selectivity equal to 12 fold

For this molecule ( COc1cccc2[nH]c([C@H](CCCNC(=N)CF)NC(=O)c3cccc4c3C(=O)NC4)nc12 [Compound 7i] ), measured Fold PAD1 Selectivity is 42 fold

Sure, the documented Fold PAD1 Selectivity for CCOc1cccc2c1nc([C@H](CCCNC(=N)CCl)NC(=O)c1cccc3c1C(=O)NC3)n2C [Compound 7n] is 24 fold

Okay, next one:
For N=C(CCl)NCCC[C@H](NC(=O)c1ccc(-c2ccccc2)cc1)c1nc2cc(F)c(F)cc2[nH]1 [Compound 5r] the molecule record lists Fold PAD1 Selectivity as 4.9 fold
